Tested on: Fibroblast
Test: Multiplex assay against human fibroblast
Format: toxicity, cell-based
Conditions: 12 h, 10 µM, compound concentration 10 uM, replicate 2
EXPERIMENTAL ENDPOINT: Population Normal (%)
Answer in %, number only, no unit symbol.

Endpoint output: Population Normal (%) of CCOc1c2c(c(OCC)c3ncccc13)CN(c1ccc(CS(=O)(=O)NC(=O)Cc3ccccc3OC)cc1C)C2=O . Value? 96

Look up Population Normal (%): CSCC[C@H](NC=O)C(=O)N[C@@H](CC(C)C)C(=O)N[C@@H](Cc1ccccc1)C(=O)O 61

Find the recorded Population Normal (%) belonging to O=C(NCCO)c1cccc(-c2cc(Nc3ccc(OC(F)(F)F)cc3)ncn2)c1 and report it. 89

Fill in the blank: the reported Population Normal (%) of CCCN1CCC[C@@H]2Cc3n[nH]cc3C[C@H]21.Cl [QUINPIROLE HYDROCHLORIDE] is ____. 97

// Population Normal (%) lookup, key: O=C(O)Cc1ccccc1Nc1c(Cl)cccc1Cl [DICLOFENAC] 93

###

Tested on: HEK-293T
Test: Multiplex assay against HEK293T
Format: toxicity, cell-based
Settings: human, 48 h, 10 µM, compound concentration 10 uM, replicate 1
Give Total Cell Count for every item shown.
A bare number is all that is needed in reply.

Checklist item: Total Cell Count tested on HEK-293T, entry Cc1ccc(/C(=C\CN2CCCC2)c2ccccn2)cc1 , value? 674

# returns recorded Total Cell Count (system: HEK-293T) for N#Cc1c(N)nc(SCc2csc(-c3ccc(Cl)cc3)n2)c(C#N)c1-c1ccc(OCCO)cc1 406

Request body: readout Total Cell Count, system HEK-293T, query CC[C@H]1OC(=O)[C@H](C)[C@@H](O[C@H]2C[C@@](C)(OC)[C@@H](O)[C@H](C)O2)[C@H](C)[C@@H](O[C@@H]2O[C@H](C)C[C@H](N(C)C)[C@H]2O)[C@@]2(C)CC(C)=C(O2)[C@H](C)[C@@H](O)[C@]1(C)O . Return the value. 671

Form field - read-out: Total Cell Count; system: HEK-293T; submitted item: O=C(O)Cc1ccccc1Nc1c(Cl)cccc1Cl 883

###

System: U2OS
Test: Multiplex assay against U2OS
Assay type: toxicity, cell-based
Conditions: human, 48 h, 10 µM, compound concentration 10 uM, replicate 1
EXPERIMENTAL ENDPOINT: Population Pyknosed Nuclei (%)
Please reply with the bare figure in % and do not write the unit itself.

Which value of Population Pyknosed Nuclei (%) has been reported for O=S(=O)(c1ccccc1)c1cnc2c(N3CCNCC3)cccc2c1 [INTEPIRDINE] in the records? 17

Name the reported Population Pyknosed Nuclei (%) value associated with the compound CNC[C@H](O)c1ccc(O)c(O)c1 [EPINEPHRINE] 14

What value of Population Pyknosed Nuclei (%) has been reported for the following compound? CCCN1CCC[C@@H]2Cc3n[nH]cc3C[C@H]21.Cl [QUINPIROLE HYDROCHLORIDE] 9

Name the reported Population Pyknosed Nuclei (%) value associated with the compound C[C@H]1[C@H]2CC[C@H]3[C@@H]4CC=C5C[C@@H](N(C)C)CC[C@]5(C)[C@H]4CC[C@]23CN1C [CONESSINE] 7

What Population Pyknosed Nuclei (%) value was documented for this compound, Cl.Clc1ccc2nsnc2c1NC1=NCCN1 [TIZANIDINE HYDROCHLORIDE] ? 6

Tell me the measured Population Pyknosed Nuclei (%) of CC[C@H]1OC(=O)[C@H](C)[C@@H](O[C@H]2C[C@@](C)(OC)[C@@H](O)[C@H](C)O2)[C@H](C)[C@@H](O[C@@H]2O[C@H](C)C[C@H](N(C)C)[C@H]2O)[C@@]2(C)CC(C)=C(O2)[C@H](C)[C@@H](O)[C@]1(C)O , please. 31

Please report the recorded Population Pyknosed Nuclei (%) for CN(C)c1ccnc2sc3c(=O)n(N4CCCCCC4)cnc3c12 . 14

Value lookup for Population Pyknosed Nuclei (%); key = COc1c(C)cc(NC(=O)c2nn(Cc3ccc(F)cc3)c3c2CN(C(=O)c2ccc[nH]2)C[C@]3(C)C(N)=O)cc1C 44

Requested field: Population Pyknosed Nuclei (%). Item: COc1cc(C(=O)N(CCCc2ccccc2)Cc2ccc(CC(=O)O)cc2)cc(OC)c1C 6

Name the reported Population Pyknosed Nuclei (%) value associated with the compound C[C@@H]1C[C@H]2[C@@H]3CCC4=CC(=O)C=C[C@]4(C)[C@@]3(F)[C@@H](O)C[C@]2(C)[C@@]1(O)C(=O)CO [DEXAMETHASONE] 8

Item Cc1ccc(F)cc1C(=O)Nc1ccc(C(=O)N2Cc3cccn3Cc3ccccc32)c(Cl)c1 [LIXIVAPTAN] has what recorded Population Pyknosed Nuclei (%)? 29

I am curious: what Population Pyknosed Nuclei (%) value has been reported for O=C(O)c1cc2ccccc2c(Cc2c(O)c(C(=O)O)cc3ccccc23)c1O [PAMOIC ACID] ? 6

# Population Pyknosed Nuclei (%) lookup, item CSc1ccccc1N1CCN(CCCCCC(=O)NC2CCCc3ccccc32)CC1.Cl (stereo unspecified) 38

Value lookup for Population Pyknosed Nuclei (%); key = CN1CCN2c3ncccc3Cc3ccccc3C2C1 (stereo unspecified) [MIRTAZAPINE] 9

Fill in: Population Pyknosed Nuclei (%) of CCCC(CCC)C(=O)O [VALPROIC ACID] is ___ 7

Returns the measured Population Pyknosed Nuclei (%) for the input compound. Input: Oc1c(CN2CCN(c3ccccn3)CC2)cc(Cl)c2cccnc12 10

// query Population Pyknosed Nuclei (%) value for entry CC1(COc2ccc3c(c2)ncn3-c2ccc3cccc(N4CCC(N)CC4)c3n2)COC1 [CRENOLANIB] 37

Recorded Population Pyknosed Nuclei (%) for O=C(NCCO)c1cccc(-c2cc(Nc3ccc(OC(F)(F)F)cc3)ncn2)c1 , please? 9

GET /values?readout=Population Pyknosed Nuclei (%)&item= O=C(O)Cc1ccccc1Nc1c(Cl)cccc1Cl [DICLOFENAC] 10

Recorded Population Pyknosed Nuclei (%) of COc1cc(NC(=O)CCN2CCC(OC(=O)Nc3ccccc3-c3ccccc3)CC2)c(Cl)cc1CNC[C@H](O)c1ccc(O)c2[nH]c(=O)ccc12 [BATEFENTEROL] , please. 18

Please give the measured Population Pyknosed Nuclei (%) for this compound: CCCn1c(=O)c2[nH]c(C3CCCC3)nc2n(CCC)c1=O 12
